- experimental target: T1, VEGFR-3-Fc (UniProt P35916 25-328)
- T1 construct: domain: first three Ig domains; conditioned supernatant of 293T cells; also called VEGFR-3-Fc fusion protein; not shown: Fc fragment of the pIg vector
- T1 sequence (looked up): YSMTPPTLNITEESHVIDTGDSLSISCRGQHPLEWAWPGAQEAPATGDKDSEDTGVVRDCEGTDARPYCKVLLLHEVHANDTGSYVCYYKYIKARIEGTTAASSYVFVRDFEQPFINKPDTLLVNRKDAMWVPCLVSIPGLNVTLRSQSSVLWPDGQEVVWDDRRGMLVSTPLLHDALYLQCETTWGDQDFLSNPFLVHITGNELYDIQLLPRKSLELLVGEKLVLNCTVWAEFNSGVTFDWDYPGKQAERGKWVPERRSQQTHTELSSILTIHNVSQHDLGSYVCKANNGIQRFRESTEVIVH
- protocol summary: receptor-Fc IP
- From the text: The binding assay procedure was identical to the immunoprecipitation using pentahistidine antibody described in Example 2, apart from the composition of the immunoprecipitation (IP) mixes. […]
value kind: binding result

53-3 (ligand, clone entry) AHYNTEILKSIDNEWRKTQCMPIETLVDIFQEYPDEIEYIFKPPCVSVYRCGGCCNSEGLQCVPTEESNITMQIMRIKPHQGQHIGEMSFLQHNKCECRPKKDLV	binds
21-2 (ligand) AHYNTEILKSIDNEWRKTQCMPREVCIDVGKEYPDEIEYIFKPSCVPLMRCGGCCNDEGLECMNTSTSYLSKTLFEIKPHQGQHIGEMSFLQHNKCECRPKKD	no binding
73-14 (ligand) GQNHHEVVKSIDNEWRKTQCMPREVCIDVGKEYPDEIEYIFKPPCVSVYRCGGCCNDEGLECMNTSTSYLSKTLFEITVPLSQGPKPVTISFANHTSCRCMSKLD	no binding
22-3 (ligand) AHYNTEILKSIDNEWRKTQCMPREVCIDVGKEFGVATNTFFKPPCVSVYRCGGCCNSEGLQCVPTEESNITMQIMRIKPHQGQHIGEMSFLQHNKCECRPKKD	binds
